- measurementNotes: chemical genetic growth profiling, strain panel (AID 1159580);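 further: tested at 20 µM; growth read once vehicle control cultures reached saturation at 30 °C; lower values mean less growth of the strain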
- conditions: S. cerevisiae deletion strains, growth OD, locus YIL066C, strain RNR3
Hit rate of the full screen: of about 5,500 compounds, about 2,000 (36%) were called active. Another 18% or so got no clear call; they are omitted. No stated cut-off is given here; in the data, active means normalized growth mostly below about 0.91 (no sharp cut-off); inconclusive means no clear call, values can overlap the other calls; inactive means mostly above about 0.92. The list shows a part of the results.
Classes used: active, inactive

>>> cat("CC(C)=CCCC1(C)C=Cc2c(O)c3c(c(CC=C(C)C)c2O1)OC12C(CC4CC1C(C)(C)OC2(C/C=C(/C)C(=O)O)C4O)C3=O (stereo not given)")
"inactive"
>>> cat("COc1cc(C(=O)O[C@H]2CC[C@@]3(C)[C@@H]4CC[C@H]5[C@]6(O)C[C@H](O)[C@@]7(O)[C@@H](CN8C[C@@H](C)CC[C@H]8[C@@]7(C)O)[C@]6(O)C[C@@]53O[C@]24O)cc(OC)c1OC")
"inactive"
>>> cat("CCOP(=S)(OCC)Oc1nc(Cl)c(Cl)cc1Cl")
"inactive"
>>> cat("CC(=O)O[C@@H]1CC[C@@]2(C)C(CC[C@]3(C)C2CC=C2C4CC(C)(C)CC[C@]4(C(=O)O)CC[C@]23C)C1(C)C (stereo not given in full)")
"inactive"
>>> cat("CC(C)CC(N(C)C)C1(c2ccc(Cl)cc2)CCC1 (stereo not given)")
"inactive"
>>> cat("CC(=O)OC1CC[C@@]2(C)C(CC[C@]3(C)C2CCC2C4CC(C)(C)CCC4(C(=O)O)CC[C@]23C)C1(C)C (stereo not given in full)")
"inactive"
>>> cat("C/C=C(/C)C(=O)OC1CCC2(C)C3CCC4C5(O)CC(O)C6(O)C(CN7CC(C)CCC7C6(C)O)C5(O)CC42OC13O (stereo not given)")
"inactive"
>>> cat("CC(C)=CCCC1(C)C=Cc2c(O)c3c(c(CC=C(C)C)c2O1)OC12C(=CC4CC1C(C)(C)OC2(C/C=C(/C)C(=O)O)C4O)C3=O (stereo not given)")
"inactive"
>>> cat("CC1(C)CC[C@]2(C(=O)O)CC[C@]3(C)C(=CCC4[C@@]5(C)CC[C@H](O)[C@@](C)(CO)C5CC[C@]43C)C2C1 (stereo not given in full)")
"inactive"
>>> cat("OC(CCN1CCCCC1)(c1ccccc1)C1CCCCC1 (stereo not given)")
"inactive"
>>> cat("CCCOc1ccccc1-c1nc2n[nH]nc2c(=O)[nH]1")
"inactive"
>>> cat("C[C@@H]1OC(O[C@H]2C(O[C@H]3CC[C@@]4(C)C(CC[C@]5(C)C4CC=C4C6CC(C)(C)CC[C@]6(C(=O)O)CC[C@]45C)[C@]3(C)CO)OC[C@H](O)[C@@H]2O)[C@H](O)[C@H](O)[C@H]1O (stereo not given in full)")
"active"
>>> cat("COc1ccc2[nH]cc(CCN)c2c1")
"inactive"
>>> cat("CC(C)(Sc1cc(C(C)(C)C)c(O)c(C(C)(C)C)c1)Sc1cc(C(C)(C)C)c(O)c(C(C)(C)C)c1")
"inactive"
>>> cat("C/C=C(/C)C(=O)O[C@H]1CC[C@@]2(C)[C@@H]3CC[C@H]4[C@]5(O)C[C@H](O)[C@@]6(O)[C@@H](CN7C[C@@H](C)CC[C@H]7[C@@]6(C)O)[C@]5(O)C[C@@]42O[C@]13O")
"inactive"
